Taken from paper PMC10731632.

Assay: Acidity constants (pKa) of the free ligands by pH-potentiometric titration
Format: physicochemical
Conditions: 1:1 water/methanol, pH potentiometry in 1:1 water/methanol, T = 25 °C, I = 0.15 M NaNO3; read-out: pKa, HL^+ ⇌ H^+ + L
property label: pKa
Field format: numeric only.

pKa measured on CSCCN1CCN(CCSC)CCN(CCSC)CC1 [NO3S] = 11.5

----------
Assay: Acidity constants (pKa) of the free ligands by pH-dependent 1H NMR
Format: physicochemical
Settings: water, T = 25 °C, I = 0.15 M NaNO3, read-out: pKa, HL^+ ⇌ H^+ + L
property label: pKa
Field format: numeric only.

pKa measured on CSCCN1CCN(CCSC)CCN(CCSC)CC1 [NO3S] = 12.7
